Record form. Attribute: inhibition. Fill in for each entry.
Molecular target: UniProtKB P35348
Sequence (P35348 whole entry): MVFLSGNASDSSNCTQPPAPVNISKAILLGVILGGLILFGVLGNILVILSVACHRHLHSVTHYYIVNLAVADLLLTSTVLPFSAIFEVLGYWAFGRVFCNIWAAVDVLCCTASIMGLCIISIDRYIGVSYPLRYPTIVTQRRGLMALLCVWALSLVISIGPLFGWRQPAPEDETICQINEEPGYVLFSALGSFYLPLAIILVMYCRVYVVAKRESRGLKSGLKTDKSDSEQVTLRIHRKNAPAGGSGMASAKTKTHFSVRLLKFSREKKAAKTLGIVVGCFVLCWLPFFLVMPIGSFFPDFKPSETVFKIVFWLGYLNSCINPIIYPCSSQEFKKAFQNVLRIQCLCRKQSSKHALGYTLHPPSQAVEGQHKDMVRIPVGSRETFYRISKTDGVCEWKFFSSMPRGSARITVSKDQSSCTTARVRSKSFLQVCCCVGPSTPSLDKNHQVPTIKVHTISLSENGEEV
Test: Inhibition of alpha 1A adrenergic receptor at 1 uM

Requested field: inhibition. Item: "CS(=O)(=O)N1CCc2c(c(-c3ccc(C(F)(F)F)cc3)nn2CCCN2CCC(N3C(=O)COc4ccccc43)CC2)C1"
72%

Requested field: inhibition. Item: CS(=O)(=O)N1CCc2c(c(-c3ccc(C(F)(F)F)cc3)nn2CC(O)CN2CCC(N3C(=O)COc4ccccc43)CC2)C1 (centres undefined)
60%

Requested field: inhibition. Item: CS(=O)(=O)N1CCc2c(c(-c3ccc(C(F)(F)F)cc3)nn2CC(O)CN2CCC(N3C(=O)CCc4cc(Cl)ccc43)CC2)C1 (centres undefined)
< 10%

Requested field: inhibition. Item: CS(=O)(=O)N1CCc2c(c(-c3ccc(C(F)(F)F)cc3)nn2CC(O)CN2CCC(N3C(=O)NCc4cc(Cl)ccc43)CC2)C1 (centres undefined)
40%
